Recorded measurements of growth, one per entry
# Test system: SNB-75 CNS
# TEST_NAME: NCI-60 one-dose screen, 48 h (100 = growth as untreated, 0 = no growth, -100 = all killed)
# ASSAY_CONTEXT: 10 µM unless noted
The panel holds about 83,000 compounds, 20% with a hit somewhere; the sample as a whole holds those more often. The source made the active and inactive calls. The calls were made as follows: active = growth percent below 10; inactive = the rest.
MEASUREMENT_KIND: growth

COC(=O)C(Br)(C(=O)OC)C(Br)C(Br)C(Br)c1ccccc1 (stereo not drawn) ... 92.4% (inactive)
O=C(c1ccccc1)c1cccc(C(Br)Br)c1 ... 73.9% (inactive)
CCCCCN(CCCCC)C(=O)C(CCC(=O)O)NC(=O)c1ccc(Cl)c(Cl)c1 (stereo not drawn) ... 93.3% (inactive)

* * *

# Tested on: IGROV1 ovarian
# TEST_NAME: NCI-60 one-dose screen, 48 h
# ASSAY_CONTEXT: 10 µM unless noted
About 83,000 compounds went through this panel and 20% of them were active in at least one assay; those are over-represented in the sample as a whole. Active and inactive are the calls of the source. The calls were made as follows: active = growth percent below 10; inactive = the rest.
Possible outcomes: active, inactive

CCN(CC)CCNC(=O)C(F)(F)C(F)(F)C(F)(F)F ... inactive
COc1ccc(-c2nn(C(=O)NCCN(C)C)cc2-c2ccncc2)cc1Cl ... inactive
CC(C)(C)c1ccc(C(=O)Nc2sc3cc(O)ccc3c2C(N)=O)cc1 ... inactive
Cc1ccc(C)c(NC(=O)c2sc3c(=O)[nH]cnc3c2C)c1 ... inactive
NC(=O)N/N=C\c1ccc([N+](=O)[O-])o1 ... inactive
Cc1ccncc1NC=O ... inactive
COc1cc(CN(c2ccc(C)cc2)C2OC(=O)c3ccccc32)cc(OC)c1OC (stereo not drawn) ... inactive
COc1cc(/C=C/c2cc(/C=C/c3ccc(O)c(OC)c3)n(C(=O)Nc3ccc(F)c(Cl)c3)n2)ccc1O ... active
COc1ccc(/C=N/NC(N)=S)c(OC)n1 ... inactive
N/C(=C\C(=O)n1nc(-c2ccccc2)cc1N)c1ccccc1 ... inactive
CC(=O)c1ccc(N2C(=O)c3ccc(Oc4ccccc4)cc3C2=O)cc1 ... inactive
O=c1nc(-c2ccccc2)c2cc(-c3ccc(N4CCOCC4)cc3)ccc2[nH]1 ... inactive
CN1C(=O)N(C)C2C1NN=c1s/c(=C\c3ccc(Br)cc3)c(=O)n12 (stereo not drawn) ... inactive

* * *

Recorded measurements of growth, one per entry
# System: NCI-H23 lung
# TEST_NAME: NCI-60 one-dose screen, 48 h (100 = growth as untreated, 0 = no growth, -100 = all killed)
# ASSAY_CONTEXT: 10 µM unless noted
# Protocol: Growth inhibition of the NCI-H23 human Non-Small Cell Lung tumor cell line is measured as a screen for anti-cancer activity. Cells are grown in 96 well plates and exposed to the test compound for 48 hours. Compounds are tested at a single concentration, which is 10^-5 M for most compounds. The reported endpoint is percent growth (GI% or GIPRCNT), where numbers from 0 - 100% represent growth inhibition, and numbers from -100% - 0 represent cell death. […]
The panel holds about 83,000 compounds, 20% with a hit somewhere; the sample as a whole holds those more often.
MEASUREMENT_KIND: growth (%)

O=C(CCl)Nc1ccc2c(c1)C(=O)c1ccccc1C2=O ... -21.2
O=C1CCCN1C1CCN2CCCc3cccc1c32 (configuration not stated) ... 105
COc1ccc(NC(=O)c2sc3c(=O)[nH]c(C(F)(F)F)nc3c2C)cc1 ... 93.4
CCn1c(Cc2ccccc2Nc2c(Cl)cccc2Cl)nnc1SCC(=O)Nc1ccccc1C(F)(F)F ... 89.7
CCCCc1nc(Cl)c(C2CC(c3ccc(S(N)(=O)=O)cc3)=NN2c2cc(Cl)cc(Cl)c2)[nH]1 (configuration not stated) ... 51.9
CS(=O)(=O)c1ccc(C(=O)N/N=C/c2ccccc2O)cc1 ... 54.8
COc1cc(C2CC(c3ccc(Cl)cc3)=NN2C=O)ccc1Oc1ccnc2cc(Cl)ccc12 (configuration not stated) ... 65.2
